# Elisa OD450 listing for each entry below
Target: T1, His-tagged cynomolgus monkey TIGIT (Acro Biosystems #TIT-05223) (cynomolgus monkey, UniProt A0A7N9I9V4 89-209)
T1 construct: Bought protein; also called cyno TIGIT; cynomolgus TIGIT; not shown: His tag
T1 sequence (A0A7N9I9V4 entry or part of it): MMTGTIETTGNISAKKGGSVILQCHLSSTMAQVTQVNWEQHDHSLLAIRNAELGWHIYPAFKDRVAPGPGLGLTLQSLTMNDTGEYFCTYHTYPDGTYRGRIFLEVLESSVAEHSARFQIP
Test: ELISA, coated His-TIGIT, 1 ug/ml
# unit: OD450 | format: bare number

These recorded examples may help you get a feel for the data.
{"columns": ["binder", "unitName", "Elisa OD450"],
 "data": [
  ["43645p1.G5 (scFv, V domains shown) VH: EVQLLESGGGLVQPGGSLRLSCAASGFTFSSYYMSWVRQAPGKGLEWVSAISIFSGDSTYYADSVKGRFTISRDNSKNTLYLQMNSLRAEDTAVYYCAKSHTVLQYGMDVWGQGTTVTVSS VL: QSVLTQPPSASGTPGQRVTISCSGVTSNIRNYYVSWYQQLPGTAPKLLIYGNDQRPSGVPDRFSGSKSGTSASLAISGLQSEDEADYYCGTWDNTLNAWVFGGGTKLTVL", "OD450", 1.73],
  ["43586p2.D06 (scFv, V domains shown) VH: EVQLLESGGGLVQPGGSLRLSCAASGFTFSSYWMNWVRQAPGKGLEWVSGIYSGGTTYYADSVKGRFTISRDNSKNTLYLQMNSLRAEDTAVYYCTRENWKENNAMDVWGQGTTVTVSS VL: QSVLTQPPSASGTPGQRVTISCSGVTSNIASYHVYWYQQLPGTAPKLLIYLNSQRPSGVPDRFSASKSGTSASLAISGLQSEDEADYYCATWDGSLNGWVFGGGTKLTVL", "OD450", 1.66],
  ["43586p2.D01 (scFv, V domains shown) VH: EVQLLESGGGLVQPGGSLRLSCAASGFTVSSNWMSWVRQAPGKGLEWVSTTSSSSWNNYTYYADSVKGRFTISRDNSKNTLYLQMNSLRAEDTAVYYCAKGSYGMDVWGQGTTVTVSS VL: QSVLTQPPSASGTPGQRVTISCSGSNSNIGAKYLYWYQQLPGTAPKLLIYLNDQRPSGVPDRFSGSKSGTSASLAISGLQSEDEADYYCAFWDDHLKGWVFGGGTKLTVL", "OD450", 1.61],
  ["43586p2.B05 (scFv, V domains shown) VH: EVQLLESGGGLVQPGGSLRLSCAASGFTFSDYYMNWVRQAPGKGLEYVASINWNGGTTYYADSVKGRFTISRDNSKNTLYLQMSSLRAEDTAVYYCAKDQNWNFYYGMDVWGQGTTVTVSS VL: QSVLTQPPSASGTPGQRVTISCSGGSSNIGNNFVSWYQQLPGTAPKLLIYNEIKRPSGVPDRFSASKSGTSASLAISGLQSEDEADYYCASWDGSLRGWVFGGGTKLTVL", "OD450", 1.32]
]}

stdin: Recorded Elisa OD450 for 43645p1.D3 (scFv, V domains shown) VH: EVQLLESGGGLVQPGGSLRLSCAASGFTFSSYWMSWVRQAPGKGLEWVSGIHISDSTYYADSVKGRFTISRDNSKNTLYLQMNSLRAEDTAVYYCAKGHTVLQYGMDVWGQGTTVTVSS VL: QSGLTQPPSASGTPGQRVTISCSGDISNTRNNYVSWYQQLPGTAPKLLIYGNHQRPSGVPDRFSGSKSATSASLAISGLQSEDEADYYCGTWDNTLNAWVFGGGTKLTVL , please?
stdout: 1.74

Hello, the source for this data is patent US20230265187A1, in case you need it.
